Listed here are compounds together with their documented pIC50.
target: SGLT5 (Homo sapiens, UniProt A0PJK1); construct: expressed in transfected cells; host or cells: T-Rex 293 cells (Invitrogen), stably transfected with pT-Rex-Dest30-hSGLT5; expression induced with tetracycline; deposited clone DSM ACC3096; assay: [14C]-monosaccharide uptake inhibition assay, [14C]-mannose as substrate, stable cell lines overexpressing human SGLT-5; assay type: cell-based; details: [14C]-mannose as substrate; 60 minutes at 37° C.; at least three independent experiments; read-out: Mean IC50 for inhibition of hSGLT-5
Sequence (A0PJK1 whole entry): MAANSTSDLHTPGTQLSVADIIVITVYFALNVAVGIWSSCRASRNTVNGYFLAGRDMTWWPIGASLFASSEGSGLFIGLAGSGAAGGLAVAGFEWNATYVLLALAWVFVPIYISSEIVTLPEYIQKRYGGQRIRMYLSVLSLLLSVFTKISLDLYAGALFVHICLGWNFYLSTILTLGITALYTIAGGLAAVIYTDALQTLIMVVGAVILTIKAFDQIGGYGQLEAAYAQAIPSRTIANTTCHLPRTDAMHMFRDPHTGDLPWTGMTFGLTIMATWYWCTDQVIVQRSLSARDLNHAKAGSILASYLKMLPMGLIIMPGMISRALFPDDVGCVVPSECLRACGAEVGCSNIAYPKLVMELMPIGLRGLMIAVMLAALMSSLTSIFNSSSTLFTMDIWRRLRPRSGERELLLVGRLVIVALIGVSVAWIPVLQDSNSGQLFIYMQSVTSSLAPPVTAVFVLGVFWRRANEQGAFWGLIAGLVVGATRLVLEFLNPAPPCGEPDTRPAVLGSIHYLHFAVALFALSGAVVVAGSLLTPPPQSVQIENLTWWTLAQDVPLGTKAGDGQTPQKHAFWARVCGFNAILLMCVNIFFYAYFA
Note: pIC50 values are expressed as the negative base-10 logarithm of concentration in M.

// known answers, use as guide
Challenge: What value of measured pIC50 is listed for Cc1ccc([C@@H]2O[C@H](CO)[C@@H](O)[C@H](O)[C@H]2O)cc1Cc1ccc(-c2ccc(F)cc2)s1 ?
Response given: 5.77

Challenge: What value of measured pIC50 is listed for Cc1c(Cc2ccc(OC(C)C)cc2)c(O[C@@H]2O[C@H](CO)[C@@H](O)[C@H](O)[C@H]2O)nn1C(C)C ?
Response given: 6.72

Challenge: What value of measured pIC50 is listed for O=C(CCc1ccc(O)cc1)c1c(O)cc(O)cc1O[C@@H]1O[C@H](CO)[C@@H](O)[C@H](O)[C@H]1O ?
Response given: 5.82

---
Challenge: What value of measured pIC50 is listed for CCOc1ccc(Cc2cc([C@@H]3O[C@H](CO)[C@@H](O)[C@H](O)[C@H]3O)ccc2Cl)cc1 ?
Response given: 6.09
